The reported measurements were obtained from patent US12428395B2.

Test system: AsPC-1
Assay: Cell viability assay (resazurin), AsPC-1
Type: cell-based
Settings: Homo sapiens, ASPC1; AsPC-1 pancreatic cancer cells
Method: Protocol for Cell Viability Assay in Different Cell Lines for CHK-1 Inhibitors: Cells were allowed to grow at 37° C. for 24 hr (adherent cells) in 5% CO2 (culture conditions) in a Nuaire incubator (humidified). […] Fluorescence was then measured using a multimodal plate reader (Biotek Synergy Neo) at an excitation wavelength of 535 nm and emission wavelength of 590 nm to obtain relative fluorescence units. […]
Reported pIC50 values are given for each entry in this list.
In plain terms, pIC50 is the concentration in mol/L turned into minus its base-10 logarithm.

INSERT INTO assay_data (compound, metricname, result) VALUES
  ('CNC(=O)c1nnc(Nc2cnc(C#N)cn2)cc1NC[C@H]1CNCCO1 (stereo in doubt)', 'pIC50', 4.93),
  ('N#Cc1cnc(Nc2cc(NCC3CNCCO3)c(C(=O)NC3CC3)nn2)cn1 (centres unmarked)', 'pIC50', 4.89),
  ('CNC(=O)c1nnc(Nc2cnc(C#N)cn2)cc1NCC1CNCCO1 (centres unmarked)', 'pIC50', 5.19),
  ('CNC(=O)c1nnc(Nc2cnc(C#N)cn2)cc1NC[C@@H]1CNCCO1 (stereo in doubt)', 'pIC50', 4.88),
  ('CN1CCC(Nc2cc(Nc3cnc(C#N)cn3)nnc2C(N)=O)CC1', 'pIC50', 4.92);

Please examine the following record next.
Record summary for "CNC(=O)c1nnc(Nc2cnc(C#N)cn2)cc1NCC1CCN(C)CC1" : reported pIC50 = 5.07

----------
Biological target: CHK-1 kinase (Homo sapiens (Human))
Sequence (O14757 whole entry): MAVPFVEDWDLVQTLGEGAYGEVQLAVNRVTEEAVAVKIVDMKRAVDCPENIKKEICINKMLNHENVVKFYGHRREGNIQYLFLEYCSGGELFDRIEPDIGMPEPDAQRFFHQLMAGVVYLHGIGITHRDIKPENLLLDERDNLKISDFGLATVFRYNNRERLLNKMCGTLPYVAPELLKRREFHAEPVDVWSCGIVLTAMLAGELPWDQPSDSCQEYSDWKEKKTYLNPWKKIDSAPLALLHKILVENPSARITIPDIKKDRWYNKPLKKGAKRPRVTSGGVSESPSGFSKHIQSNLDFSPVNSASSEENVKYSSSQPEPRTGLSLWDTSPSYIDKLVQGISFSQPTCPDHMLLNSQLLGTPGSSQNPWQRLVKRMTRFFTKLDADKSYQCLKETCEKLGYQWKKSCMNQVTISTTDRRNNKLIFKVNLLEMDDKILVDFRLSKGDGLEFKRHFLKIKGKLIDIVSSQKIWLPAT
Assay: CHK-1 Kinase Assay (Z-LYTE based TR-FRET)
Type: biochemical
Details: 0.1 μM compound; read-out: % Inhibition of CHK-1 enzyme activity @ 0.1 μM
Classification field: YES = inhibition at 0.1 µM at or over 8%; NO = inhibition at 0.1 µM under 8%.

These recorded examples may help you get a feel for the data.
INSERT INTO measurements (compound, testedon, qualitativelabel) VALUES
  ('Cn1ccc(-c2nnc(Nc3cnc(C#N)cn3)cc2NCC2CCNCC2)n1', 'CHK-1 kinase (Homo sapiens (Human))', 'YES'),
  ('N#Cc1cnc(Nc2cc(NCC3CCNCC3)c(OCC(F)(F)F)nn2)cn1', 'CHK-1 kinase (Homo sapiens (Human))', 'YES'),
  ('Cc1nnc(Nc2cnc(C#N)cn2)cc1NCC1CNCCO1 (stereo not drawn)', 'CHK-1 kinase (Homo sapiens (Human))', 'NO');

### Prompt Is it the case that CNC(=O)c1nnc(Nc2cnc(C#N)cn2)cc1NCC1CNCCO1 (stereo not drawn) has inhibition at 0.1 µM reaching or exceeding 8%?
### Response YES

### Prompt Is it the case that "N#Cc1cnc(Nc2cc(NCC3CCNCC3)c(-c3cccc4[nH]ccc34)nn2)cn1" has inhibition at 0.1 µM reaching or exceeding 8%?
### Response NO

----------
Target: CHK-1 kinase (Homo sapiens (Human))
Assay: CHK-1 Kinase Assay (Z-LYTE based TR-FRET)
Type: biochemical
Settings: 5 μM compound; read-out: % Inhibition of CHK-1 enzyme activity @ 5 μM
Classification field: rule met = inhibition at 5 µM at or over 30%; rule not met = inhibition at 5 µM under 30%.

INSERT INTO assay_data (molecule, qualitativelabel) VALUES
  ('N#Cc1cnc(Nc2cc(NCC3CCNCC3)c(-c3ccc(F)cc3)nn2)cn1', 'rule met'),
  ('Cn1ccc(-c2nnc(Nc3cnc(C#N)cn3)cc2NCC2CCNCC2)n1', 'rule met'),
  ('CC(C)Oc1nnc(Nc2cnc(C#N)cn2)cc1NCC1CCNCC1', 'rule not met'),
  ('N#Cc1cnc(Nc2cc(NCC3CCNCC3)c(-c3ccccc3)nn2)cn1', 'rule met'),
  ('COc1ccc(-c2nnc(Nc3cnc(C#N)cn3)cc2NCC2CCNCC2)cc1', 'rule met'),
  ('Cc1nnc(Nc2cnc(C#N)cn2)cc1NCC1CCNCC1', 'rule not met'),
  ('Cc1nnc(Nc2cnc(C#N)cn2)cc1NCC1CNCCO1 (stereo not shown)', 'rule met'),
  ('N#Cc1cnc(Nc2cc(NCC3CCNCC3)c(C(N)=O)nn2)cn1', 'rule met');

### Prompt Is it the case that Cn1cc(Nc2cc(NCC3CNCCO3)c(-c3ccccc3)nn2)cn1 (stereo not shown) has inhibition at 5 µM reaching or exceeding 30%?
### Response rule not met

### Prompt Is it the case that "CNC(=O)c1nnc(Nc2cnc(C#N)cn2)cc1NCC1CCOCC1" has inhibition at 5 µM reaching or exceeding 30%?
### Response rule met
